Give MIC80 for every item shown.
- System: Pseudomonas aeruginosa
- assay.procedure: Antibacterial activity against Pseudomonas aeruginosa ATCC 49189 after 24 hrs by microtiter broth dilution method
- Format: functional
- measurement.parameters: ATCC 49189, 24 h
One number for each entry, in µg/mL.

Illustrative cases are given below, each with its answer.
Oc1ccc2cc(-c3ccccc3)oc2c1    0.78
CC(=O)c1c(-c2ccc(C)o2)oc2cc(O)ccc12    12.5
c1ccc(COc2ccc3cc(-c4ccccc4)oc3c2)cc1    100
CC(C)(O/N=C(\C(=O)N[C@@H]1C(=O)N2C(C(=O)[O-])=C(C[n+]3ccccc3)CS[C@H]12)c1csc(N)n1)C(=O)O [CEFTAZIDIME]    12.5
Cc1ccc(-c2cc3ccc(O)cc3o2)o1    0.78

Now turn to the next compound.
Lab note: measured MIC80 of COc1ccc(-c2cc3ccc(O)cc3o2)cc1 was 1.56
